system: SU-DHL-4 cells; assay: Inhibitory effect on cell viability in SU-DHL-4 cell line (Test Example 1); format: cell-based, human; details: SU-DHL-4 cells, 72 hours, Cell Counting Kit-8; concentration showing 90% inhibition of cell viability; read-out: SU-DHL-4 Cell Viability Inhibition Rate IC90
reported.metric: IC90 (nM)

Consider the following illustrative entries.
CCC(=O)N1c2ccccc2[C@H](Nc2ccc(C(=O)NCCCNC(=O)c3ccc(C4=N[C@@H](CC(=O)OC5CCC(O)CC5)c5nnc(C)n5-c5sc(C)c(C)c54)cc3)cc2)C[C@@H]1C (some centres unmarked) [Compound 13d] :: 1.19
CCC(=O)N1c2ccccc2[C@H](Nc2ccc(C(=O)NCCNC(=O)c3ccc(C4=N[C@@H](CC(=O)OC(C)(C)C)c5nnc(C)n5-c5sc(C)c(C)c54)cc3)cc2)C[C@@H]1C :: 3.18
CCC(=O)N1c2ccccc2[C@H](NCCCCC(=O)NCc2nnc(-c3ccc(N[C@@H]4C[C@H](C)N(C(=O)CC)c5ccccc54)cc3)o2)C[C@@H]1C (relative stereo) [Compound 12j] :: 17.4

P = CCC(=O)N1c2ccccc2[C@H](Nc2ccc(C(=O)N[C@H]3C[C@H](NC(=O)c4ccc(N[C@@H]5C[C@H](C)N(C(=O)CC)c6ccccc65)cc4)C3)cc2)C[C@@H]1C
Q = CCC(=O)N1c2ccccc2[C@H](Nc2ccc(-c3nc(CNC(=O)C4CCC(N[C@@H]5C[C@H](C)N(C(=O)CC)c6ccccc65)CC4)no3)cc2)C[C@@H]1C (relative stereo)
Please tell me which of the two, P or Q , has the higher reported IC90 value. Answer with the label corresponding to your selection.
P
(P: 33.1 nM, Q: 0.26 nM)

The values you see were collected from patent US20220378923A1.
